FYI, the data here is from patent US8030336B2.

Molecular target: fes (Homo sapiens)
Sequence (P07332 561-822 limits assumed, species assumed): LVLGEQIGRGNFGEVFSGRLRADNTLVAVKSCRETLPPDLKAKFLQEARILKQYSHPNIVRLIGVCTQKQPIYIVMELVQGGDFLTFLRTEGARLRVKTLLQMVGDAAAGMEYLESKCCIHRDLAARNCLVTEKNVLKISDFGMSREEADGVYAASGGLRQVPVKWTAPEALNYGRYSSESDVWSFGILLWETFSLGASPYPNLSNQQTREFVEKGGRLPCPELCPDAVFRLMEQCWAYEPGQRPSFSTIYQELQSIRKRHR
Experiment: fes kinase assay (ELISA or Alphascreen)
Type: biochemical
Conditions: read-out: fes inhibition of enzyme activity
Listing: inhibition at 10 µM of selected compounds
Measurement kind: inhibition at 10 µM

> print(dat)
                            chemical.smiles     measurement.kind  data.value
1  COc1cc(-c2cncc(C(=O)N[C@H](C)c3ccccc3)c2)c(Cl)c(OC)c1OC  inhibition at 10 µM       < 50%
2  COc1ccc(NC(=O)c2cncc(-c3cccnc3)c2)c(OC)c1  inhibition at 10 µM       < 50%
3     COc1cccc(-c2cncc(C(=O)Nc3ccccc3)c2)c1  inhibition at 10 µM       < 50%

====

Listing: inhibition at 10 µM of selected molecules
Target: fms (Homo sapiens)
Sequence (P07333 582-910 limits assumed): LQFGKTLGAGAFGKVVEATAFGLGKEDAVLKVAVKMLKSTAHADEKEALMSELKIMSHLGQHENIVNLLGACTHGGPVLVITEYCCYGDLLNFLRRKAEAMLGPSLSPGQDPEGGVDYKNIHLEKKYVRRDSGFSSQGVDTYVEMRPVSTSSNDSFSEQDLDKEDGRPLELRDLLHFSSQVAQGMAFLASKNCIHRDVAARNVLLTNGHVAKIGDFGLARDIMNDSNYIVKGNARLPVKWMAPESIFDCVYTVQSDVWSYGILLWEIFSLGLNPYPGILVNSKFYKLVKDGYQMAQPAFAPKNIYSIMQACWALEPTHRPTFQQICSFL
Experiment: fms kinase assay (ELISA or Alphascreen)
Format: biochemical
Details: read-out: fms inhibition of enzyme activity
Measurement kind: inhibition at 10 µM

> print(dat)
                                    molecule  data.value
 1  COc1cc(CNC(=O)c2cncc(-c3ccc(O)cc3)c2)cc(OC)c1       < 50%
 2  COc1cc(NC(=O)c2cncc(-c3ccc(F)cc3)c2)cc(OC)c1OC       < 50%
 3  Cc1ccc(CNC(=O)c2cncc(-c3ccc(F)cc3)c2)cc1       < 50%
 4  Cc1ccc(C)c(NC(=O)c2cncc(-c3ccc4c(c3)OCO4)c2)c1       < 50%
 5  COc1ccc(NC(=O)c2cncc(-c3cc(OC)c(OC)c(OC)c3)c2)c(OC)c1       < 50%
 6  COc1cccc([C@H](C)NC(=O)c2cncc(-c3ccc(O)c(OC)c3)c2)c1       < 50%
 7    COc1cc(-c2cncc(C(=O)NCCO)c2)cc(OC)c1OC       < 50%
 8  CC(C)C(CO)NC(=O)c1cncc(-c2ccc(F)cc2)c1 (centres unmarked)       < 50%
 9  COc1cc(-c2cncc(C(=O)Nc3cc(F)ccc3C)c2)c(Cl)c(OC)c1OC       ≥ 50%
10  COc1cc(CNC(=O)c2cncc(-c3cc(OC)c(OC)c(OC)c3Cl)c2)cc(OC)c1       < 50%
11         CC(C)NC(=O)c1cncc(-c2ccc(O)cc2)c1       < 50%
12      O=C(NCc1ccco1)c1cncc(-c2ccc(O)cc2)c1       ≥ 50%
13  Cc1ccc(C)c(NC(=O)c2cncc(-c3ccc(F)cc3)c2)c1       < 50%
14  COc1ccc(NC(=O)c2cncc(-c3cccs3)c2)c(OC)c1       < 50%
15  Cc1ccc(F)cc1NC(=O)c1cncc(-c2cc(C)c(O)c(C)c2)c1       ≥ 50%
16    Cc1ccc(C)c(NC(=O)c2cncc(-c3cccs3)c2)c1       < 50%
17  COc1cc(-c2cncc(C(=O)NCCc3ccccc3)c2)c(Cl)c(OC)c1OC       < 50%
18      O=C(Nc1ccccc1)c1cncc(-c2ccc(O)cc2)c1       < 50%
19    COc1cc(-c2cncc(C(=O)OC(C)(C)C)c2)ccc1O       ≥ 50%
20          O=C(Nc1ccccc1)c1cncc(-c2cccs2)c1       < 50%
21    COc1cccc(-c2cncc(C(=O)NCc3cccnc3)c2)c1       < 50%
22  Cc1cc(-c2cncc(C(=O)NC(C)CCc3ccccc3)c2)cc(C)c1O (centres unmarked)       < 50%
23  COc1ccc(CNC(=O)c2cncc(-c3cc(C)c(O)c(C)c3)c2)cc1       < 50%
